Task for the reader: assign each of the following sequences its reported target mRNA inhibition.
biological target: DGAT2; conditions: ASO, HepG2, 10 µM
After the bases stand the sugars from the 5' end (letter, count) and the backbone: PS all phosphorothioate, else s phosphorothioate and o phosphodiester by linkage. Methylation of C is not given here. e = 2'-O-(2-methoxyethyl) (MOE); d = 2'-deoxy (DNA)
Give bare numbers, in %.

Known results for sequences:
1) CATACTGGCATCTGGCAGGG (sugars e5 d10 e5, PS) ... 83
2) CACCATTTTCACAAGGAGAA (sugars e5 d10 e5, PS) ... 82
3) GCCAAGGACAGAGGTTCAAC (sugars e5 d10 e5, PS) ... 90
4) GGCTCAGTTCACCTCCAGGA (sugars e5 d10 e5, PS) ... 90
5) GACACACAATATCCATGGAC (sugars e5 d10 e5, PS) ... 93
6) CCCAGATTTAGCCACCACCT (sugars e5 d10 e5, PS) ... 72

Record target mRNA inhibition per entry; entries follow.
1. GCTGAGTCTGTGCTGCA (sugars e3 d10 e4, PS)
2. CAATGCCAATGCCTAGGTCA (sugars e5 d10 e5, PS)
3. GCCCAGCACCAAGGAATGGT (sugars e5 d10 e5, PS)
4. TGAGCTCTCAAGTCTTCCTC (sugars e5 d10 e5, PS)
5. CTCCTGTTTGATGGGTAAAA (sugars e5 d10 e5, PS)
6. GGAGCTCAGAGACTCAGCCG (sugars e3 d14 e3, PS)
7. TGACCTTGGGATAGTCCCTC (sugars e5 d10 e5, PS)
8. GGCATGCTTCCTCCCACTTC (sugars e5 d10 e5, PS)

Result:
1. 85
2. 90
3. 59
4. 89
5. 80
6. 53
7. 89
8. 72

Record target mRNA inhibition per entry; entries follow.
1. GCACCTTGTATTAAATACTC (sugars e5 d10 e5, PS)
2. GCCCTCCTCGAAGATCACCT (sugars e5 d10 e5, PS)
3. GAATGGTGTGTTGGCTCCCT (sugars e5 d10 e5, PS)
4. GGTAAGGCCAAGGAAGTGAG (sugars e5 d10 e5, PS)
5. TCTGCGCGATTCACTGAGGA (sugars e5 d10 e5, PS)
6. AAGGAAAACTTAGGCATGCT (sugars e5 d10 e5, PS)
7. CCTCCTTAGCTTTAATCCAG (sugars e5 d10 e5, PS)

Result:
91
76
75
80
84
80
82

====

biological target: KRAS; settings: ASO, A431, 2 µM
After the bases stand the sugars from the 5' end (letter, count) and the backbone: PS all phosphorothioate, else s phosphorothioate and o phosphodiester by linkage. Methylation of C is not given here. e = 2'-O-(2-methoxyethyl) (MOE); k = constrained ethyl (cEt); d = 2'-deoxy (DNA)
Task for the reader: assign each of the following sequences its reported target mRNA inhibition.
Answers are plain numbers, in %.

1. TCTTGTTGAGCTATCC (sugars k3 d10 k3, PS) ... 56
2. TCTTTTAATGTCACAA (sugars k3 d10 k3, PS) ... 46

Record target mRNA inhibition per entry; entries follow.
1. GATGGTGTAACATAGG (sugars k3 d10 k3, PS)
2. ATGCTGTGAAACTCTC (sugars kddddddddddkekek, PS)
3. GTCCAGTGATACTTTC (sugars kkddddddddkekekk, PS)
4. AGATGGTGTAACATAG (sugars k3 d10 k3, PS)
5. AAGGTAAAAGCTAACA (sugars k3 d10 k3, PS)
6. GGAGTCTTTATAGTAA (sugars kkddddddddkekekk, PS)

Result:
[60, 18, 22, 39, 21, 25]

Record target mRNA inhibition per entry; entries follow.
1. AAATTAGTGATTAGGT (sugars k3 d10 k3, PS)
2. GTGTGACTCAGTTAAA (sugars kdddddddddkekeke, PS)
3. TCCATTTATGTGACTA (sugars kkkddddddddkdkdk, PS)

Result:
5
25
16
